Measured values drawn from patent US12371454B2 for this set.

# pIC50 values compiled below
- TARGET OR SYSTEM: Kras and SOS1 (biotin-tagged human Kras loaded with GDP, His-tagged human SOS1) (Homo sapiens, UniProt P01116, G12D)
- Construct: made in house; host or cells: E. coli (stated for Kras only)
- Sequence (P01116 1-188 isoform P01116-2 G12D): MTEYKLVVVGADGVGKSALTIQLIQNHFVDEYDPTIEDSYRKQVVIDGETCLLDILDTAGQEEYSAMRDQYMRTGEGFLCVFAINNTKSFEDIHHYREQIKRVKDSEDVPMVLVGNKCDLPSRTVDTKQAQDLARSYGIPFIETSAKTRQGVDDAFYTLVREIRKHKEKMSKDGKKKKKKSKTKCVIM
- EXPERIMENT NOTES: Protein-protein interaction inhibition between Kras and SOS1 (KrasGl2D-SOS PPI) using AlphaScreen
- Type: binding
- RUN CONDITIONS: AlphaScreen; biotin-tagged human Kras loaded with GDP, His-tagged human SOS1; read-out: KRAS G12D-SOS PPI IC50
Positions of bridges follow the written chain, without caps; N, C: chain ends. Non-standard residues stand in square brackets, D forms with d. Residues, ends and D or L forms follow the SMILES beside them. *: point of attachment. hPhe(3-Cl-4-CF3) = N[C@@H](CCc1ccc(C(F)(F)F)c(Cl)c1)C(=O)O; hPhe(3-F,4-CF3) = N[C@@H](CCc1ccc(C(F)(F)F)c(F)c1)C(=O)O; NMeAbu(4,4,4-F3) = CN[C@@H](CC(F)(F)F)C(=O)O; NMePhe(4-Me) = CN[C@@H](Cc1ccc(C)cc1)C(=O)O; NMeCha = CN[C@@H](CC1CCCCC1)C(=O)O; NMeChg = CN[C@H](C(=O)O)C1CCCCC1; NMeD = CN[C@@H](CC(=O)O)C(=O)O; NMeL = CN[C@@H](CC(C)C)C(=O)O; d(β3hA) = C[C@@H](N)CC(=O)O; NMeS = CN[C@@H](CO)C(=O)O; Piperidide = C1CCN(*)CC1; Pyrrolidide = C1CCN(*)C1; Ac5c = NC1(C(=O)O)CCCC1; Cyclopropyl = C1CC1*; Sar = CNCC(=O)O
Reminder that pIC50 means the negative base-10 logarithm of the concentration expressed in mol/L.

These solved cases illustrate the format of a correct answer.
CC[C@H](C)[C@@H]1NC(=O)[C@H](CC(F)(F)F)N(C)C(=O)C[C@@H](C(=O)N2CCCC2)N(C)C(=O)[C@H](C2CCCCC2)N(C)C(=O)C2(CCCC2)NC(=O)[C@@H]2CCCN2C(=O)[C@H](CCc2ccc(C(F)(F)F)c(Cl)c2)NC(=O)CN(C)C(=O)[C@H](Cc2ccc(C)cc2)N(C)C(=O)CN(C)C(=O)CN(C)C1=O [Compound 814] ([NMeAbu(4,4,4-F3)]I[Sar][Sar][NMePhe(4-Me)][Sar][hPhe(3-Cl-4-CF3)]P[Ac5c][NMeChg][NMeD]-Pyrrolidide; lactam N-11) : 9.39
CC[C@H](C)[C@@H]1NC(=O)[C@H](CC(C)C)N(C)C(=O)C[C@@H](C)NC(=O)[C@H](CC(C)C)N(C)C(=O)C2(CCCC2)NC(=O)[C@@H]2CCCN2C(=O)[C@H](CCc2ccc(C(F)(F)F)c(F)c2)NC(=O)CN(C)C(=O)[C@H](CC2CCCCC2)N(C)C(=O)CN(C)C(=O)CN(C)C1=O [Compound 402] (cyclo([Ac5c][NMeL][d(β3hA)][NMeL]I[Sar][Sar][NMeCha][Sar][hPhe(3-F,4-CF3)]P)) : 7.59

// switching to the query molecule
*Q* Tell us which pIC50 value is on record for CC[C@H](C)[C@@H]1NC(=O)[C@H](CC(C)C)N(C)C(=O)C[C@@H](C(=O)N2CCCCC2)N(C)C(=O)[C@H](COC2CC2)N(C)C(=O)C2(CCCC2)NC(=O)[C@@H]2CCCN2C(=O)[C@H](CCc2ccc(C(F)(F)F)c(Cl)c2)NC(=O)CN(C)C(=O)[C@H](CC2CCCCC2)N(C)C(=O)CN(C)C(=O)CN(C)C1=O [Compound 1857] ([NMeL]I[Sar][Sar][NMeCha][Sar][hPhe(3-Cl-4-CF3)]P[Ac5c][NMeS](Cyclopropyl)[NMeD]-Piperidide; lactam N-11)
*A* 7.72

###

- TARGET OR SYSTEM: Kras and SOS1 (biotin-tagged human Kras loaded with GDP, His-tagged human SOS1) (Homo sapiens, UniProt P01116, G12D)
- Construct: made in house; host or cells: E. coli (stated for Kras only)
- EXPERIMENT NOTES: Protein-protein interaction inhibition between Kras and SOS1 (KrasGl2D-SOS PPI) using AlphaScreen
- Assay type: binding
- RUN CONDITIONS: AlphaScreen; biotin-tagged human Kras loaded with GDP, His-tagged human SOS1; read-out: KRAS G12D-SOS PPI IC50
Starred links: 1 amine or outer side, 2 acyl side, 3 side chain; linkers in the order of their positions; H or OH if unused. Positions of bridges follow the written chain, without caps; N, C: chain ends. Non-standard residues stand in square brackets, D forms with d. Residues, ends and D or L forms follow the SMILES beside them. hPhe(3-Cl-4-CF3) = N[C@@H](CCc1ccc(C(F)(F)F)c(Cl)c1)C(=O)O; NMePhe(3-F) = CN[C@@H](Cc1cccc(F)c1)C(=O)O; NMedβ3hAla = C[C@H](CC(=O)[*:2])N(C)[*:1]; NMeGly(cPent) = CN[C@H](C(=O)O)C1CCCC1; Pro(4,4-F2) = O=C(O)[C@@H]1CC(F)(F)CN1; NMeCha = CN[C@@H](CC1CCCCC1)C(=O)O; NMeChg = CN[C@H](C(=O)O)C1CCCCC1; NMeI = CC[C@H](C)[C@H](NC)C(=O)O; dNMeF = CN[C@H](Cc1ccccc1)C(=O)O; NMeβAla = CN(CCC(=O)[*:2])[*:1]; NMeD = CN[C@@H](CC(=O)O)C(=O)O; NMeL = CN[C@@H](CC(C)C)C(=O)O; d(β3hA) = C[C@@H](N)CC(=O)O; NMeA = CN[C@@H](C)C(=O)O; Ac5c = NC1(C(=O)O)CCCC1; Ac4c = NC1(C(=O)O)CCC1; Sar = CNCC(=O)O
OBSERVED PROPERTY: log10 of IC50 (log10 of the value in nM)
The common logarithm of IC50 in nM is what is listed.

CC[C@H](C)[C@@H]1NC(=O)[C@H](CC(C)C)N(C)C(=O)C[C@@H](C(=O)N(C)C)N(C)C(=O)[C@H](C2CCCCC2)N(C)C(=O)C2(CCCC2)NC(=O)[C@@H]2CCCN2C(=O)[C@H](CCc2ccc(C(F)(F)F)c(Cl)c2)NC(=O)CN(C)C(=O)[C@H](CC2CCCCC2)N(C)C(=O)CN(C)C(=O)CN(C)C1=O [Compound 1729] ([NMeL]I[Sar][Sar][NMeCha][Sar][hPhe(3-Cl-4-CF3)]P[Ac5c][NMeChg][NMeD]-NMe2; lactam N-11) : -0.36

*Q* Tell us which log10 of IC50 value is on record for CC[C@H](C)[C@@H]1NC(=O)[C@H](C)N(C)C(=O)C[C@@H](C)NC(=O)[C@H](C2CCCC2)N(C)C(=O)C2(CCCC2)NC(=O)[C@@H]2CCCN2C(=O)[C@H](CCc2ccc(C(F)(F)F)c(Cl)c2)NC(=O)CN(C)C(=O)[C@H](Cc2cccc(F)c2)N(C)C(=O)[C@@H]2CCCN2C(=O)CN(C)C1=O [Compound 194] (cyclo([Ac5c][NMeGly(cPent)][d(β3hA)][NMeA]I[Sar]P[NMePhe(3-F)][Sar][hPhe(3-Cl-4-CF3)]P))
*A* 1.43

*Q* Tell us which log10 of IC50 value is on record for CC[C@H](C)[C@@H]1NC(=O)[C@H](CC(C)C)N(C)C(=O)C[C@@H](C)N(C)C(=O)[C@H]([C@@H](C)CC)N(C)C(=O)C2(CCC2)NC(=O)[C@@H]2CC(F)(F)CN2C(=O)[C@H](CCc2ccc(C(F)(F)F)c(Cl)c2)NC(=O)CN(C)C(=O)[C@H](CC2CCCCC2)N(C)C(=O)CN(C)C(=O)CN(C)C1=O [Compound 891] (cyclo([Ac4c][NMeI][NMedβ3hAla][NMeL]I[Sar][Sar][NMeCha][Sar][hPhe(3-Cl-4-CF3)][Pro(4,4-F2)]))
*A* 0.98

*Q* Tell us which log10 of IC50 value is on record for CC[C@H](C)[C@@H]1NC(=O)CCN(C)C(=O)[C@@H](Cc2ccccc2)N(C)C(=O)[C@H](C2CCCC2)N(C)C(=O)C2(CCCC2)NC(=O)[C@@H]2CCCN2C(=O)[C@H](CCc2ccc(C(F)(F)F)c(Cl)c2)NC(=O)CN(C)C(=O)[C@H](CC2CCCCC2)N(C)C(=O)CN(C)C(=O)CN(C)C1=O [Compound 753] (cyclo([Ac5c][NMeGly(cPent)][dNMeF][NMeβAla]I[Sar][Sar][NMeCha][Sar][hPhe(3-Cl-4-CF3)]P))
*A* 1.54
